The measurements presented in this section are drawn from paper doi:10.1101/2020.09.29.317933.

- target-desc: the molecule itself
value-kind: stoichiometry N
Kindly provide the number alone.

Request: Complete the entry with stoichiometry N for His-tagged lamin A/C 1-300 fragment, wild type (domain or fragment, human, UniProt P02545 1-300, looked up) METPSQRRATRSGAQASSTPLSPTRITRLQEKEDLQELNDRLAVYIDRVRSLETENAGLRLRITESEEVVSREVSGIKAAYEAELGDARKTLDSVAKERARLQLELSKVREEFKELKARNTKKEGDLIAAQARLKDLEALLNSKEAALSTALSEKRTLEGELHDLRGQVAKLEAALGEAKKQLQDEMLRRVDAENRLQTMKEELDFQKNIYSEELRETKRRHETRLVEIDNGKQREFESRLADALQELRAQHEDQVEQYKKELEKTYSAKLDNARQSAERNSNLVGAAHEELQQSRIRID
Response: 2

Request: Hello, please tell me recorded stoichiometry N for this one: His-tagged lamin A/C 1-300 fragment, I63S (domain or fragment, human, UniProt P02545 1-300, looked up) METPSQRRATRSGAQASSTPLSPTRITRLQEKEDLQELNDRLAVYIDRVRSLETENAGLRLRSTESEEVVSREVSGIKAAYEAELGDARKTLDSVAKERARLQLELSKVREEFKELKARNTKKEGDLIAAQARLKDLEALLNSKEAALSTALSEKRTLEGELHDLRGQVAKLEAALGEAKKQLQDEMLRRVDAENRLQTMKEELDFQKNIYSEELRETKRRHETRLVEIDNGKQREFESRLADALQELRAQHEDQVEQYKKELEKTYSAKLDNARQSAERNSNLVGAAHEELQQSRIRID
Response: 2
